These entries and their values trace back to the supplement of paper PMC10065799.

phosphorylation enrichment values by entry
measured-target: EPHB1 (UniProt P54762)
Sequence (P54762 whole entry, looked up): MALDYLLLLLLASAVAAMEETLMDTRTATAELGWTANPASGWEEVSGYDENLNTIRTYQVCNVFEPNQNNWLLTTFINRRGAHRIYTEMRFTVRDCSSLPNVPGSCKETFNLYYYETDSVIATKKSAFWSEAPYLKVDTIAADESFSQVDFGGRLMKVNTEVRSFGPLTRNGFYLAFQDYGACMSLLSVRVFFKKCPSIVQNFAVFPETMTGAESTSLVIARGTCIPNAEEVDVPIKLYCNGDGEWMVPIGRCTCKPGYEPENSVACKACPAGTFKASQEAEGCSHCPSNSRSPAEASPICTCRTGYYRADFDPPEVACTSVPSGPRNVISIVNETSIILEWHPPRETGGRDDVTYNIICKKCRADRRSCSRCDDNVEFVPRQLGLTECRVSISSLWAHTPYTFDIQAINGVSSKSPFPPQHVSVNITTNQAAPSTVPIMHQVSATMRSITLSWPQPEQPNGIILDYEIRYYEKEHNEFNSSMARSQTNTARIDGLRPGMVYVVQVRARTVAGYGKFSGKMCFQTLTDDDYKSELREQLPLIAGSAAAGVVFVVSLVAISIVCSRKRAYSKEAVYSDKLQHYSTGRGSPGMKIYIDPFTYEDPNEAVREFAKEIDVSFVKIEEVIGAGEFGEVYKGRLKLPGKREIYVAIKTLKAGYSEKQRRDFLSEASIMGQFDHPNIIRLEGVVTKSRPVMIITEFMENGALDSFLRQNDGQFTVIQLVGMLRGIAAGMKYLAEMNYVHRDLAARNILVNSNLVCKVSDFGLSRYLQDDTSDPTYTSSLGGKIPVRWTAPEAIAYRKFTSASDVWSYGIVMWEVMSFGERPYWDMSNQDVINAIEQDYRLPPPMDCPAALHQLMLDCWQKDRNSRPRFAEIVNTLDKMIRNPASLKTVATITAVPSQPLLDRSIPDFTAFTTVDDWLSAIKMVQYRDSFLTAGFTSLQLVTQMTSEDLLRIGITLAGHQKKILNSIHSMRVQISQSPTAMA
test-method-notes: phosphorylation enrichment, bacterial display (enrichment ratio); higher = better substrate or ligand; peptides without Tyr show the background;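 further: 11-residue human phosphosite peptides and single-mutation variants displayed on the E. coli surface, counted by deep sequencing, each peptide's frequency after selection divided by its frequency in the unselected input library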;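 further: frequency after pTyr selection over input frequency; kinase dosed for 20-30% of maximal phosphorylation in three min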
Please reply with the number alone, leaving off any unit.

Previously resolved entries follow.
> print(dat)
                    sequence.content  reported.value
1  IVKAFYVHARA [AIPL1_Y268_R270H_YF]           0.492
2        VHNLDYFKKTT [FGFR3_Y647_YF]           0.512
3         FLTLHYDAKPQ [ANG_Y38_Q36L]           0.505
4        KHMADYPDFKF [SOX11_Y113_YF]           0.503

Request: // query phosphorylation enrichment value for entry SIKDKYVMALY [KCNH2_Y611_T613M]
Response: 0.505

Request: One more sequence: APVEDYGGGGG [B4GALT6_Y382_I379V]
Response: 0.503

* * *

measured-target: EPHB1 (UniProt P54762)
test-method-notes: phosphorylation enrichment, bacterial display (enrichment ratio); higher = better substrate or ligand; peptides without Tyr show the background
measurement-label: phosphorylation enrichment

Examples from the recorded data:
> print(dat)
                     sequence.content  reported.value
1             QEKKGYFEDRR [GLUL_Y336]           0.618
2          AIIEEYLHLND [EIF4G1_Y1253]           0.564
3   QSSEGYDLGDR [KIAA1210_Y564_G565D]           0.644
4       FGAHNHHPLPV [OAT_Y55_Y55H_YF]           0.393
5       NPQKSYFILLF [WAS_Y83_R86L_YF]           0.546
6  RPFSPYIIRGM [LRP5_Y1531_R1529S_YF]           0.752

Request: // fetch EPHB1 (UniProt P54762) phosphorylation enrichment for FPPDGYSRHFE [CTNND1_Y213_YF]
Response: 0.363

Request: What about this sequence? VDSGVYAVPPP [BCAR1_Y410]
Response: 7.54

Request: And the next one, SNPAFYVLEGV [INPPL1_Y987_N982S_YF] ?
Response: 0.469

Request: Next sequence up: TFSPPYYHRNC [HGD_Y333_R330S]
Response: 0.45

* * *

phosphorylation enrichment: recorded values
measured-target: EPHB2 (UniProt P29323)
Sequence (P29323 whole entry, looked up): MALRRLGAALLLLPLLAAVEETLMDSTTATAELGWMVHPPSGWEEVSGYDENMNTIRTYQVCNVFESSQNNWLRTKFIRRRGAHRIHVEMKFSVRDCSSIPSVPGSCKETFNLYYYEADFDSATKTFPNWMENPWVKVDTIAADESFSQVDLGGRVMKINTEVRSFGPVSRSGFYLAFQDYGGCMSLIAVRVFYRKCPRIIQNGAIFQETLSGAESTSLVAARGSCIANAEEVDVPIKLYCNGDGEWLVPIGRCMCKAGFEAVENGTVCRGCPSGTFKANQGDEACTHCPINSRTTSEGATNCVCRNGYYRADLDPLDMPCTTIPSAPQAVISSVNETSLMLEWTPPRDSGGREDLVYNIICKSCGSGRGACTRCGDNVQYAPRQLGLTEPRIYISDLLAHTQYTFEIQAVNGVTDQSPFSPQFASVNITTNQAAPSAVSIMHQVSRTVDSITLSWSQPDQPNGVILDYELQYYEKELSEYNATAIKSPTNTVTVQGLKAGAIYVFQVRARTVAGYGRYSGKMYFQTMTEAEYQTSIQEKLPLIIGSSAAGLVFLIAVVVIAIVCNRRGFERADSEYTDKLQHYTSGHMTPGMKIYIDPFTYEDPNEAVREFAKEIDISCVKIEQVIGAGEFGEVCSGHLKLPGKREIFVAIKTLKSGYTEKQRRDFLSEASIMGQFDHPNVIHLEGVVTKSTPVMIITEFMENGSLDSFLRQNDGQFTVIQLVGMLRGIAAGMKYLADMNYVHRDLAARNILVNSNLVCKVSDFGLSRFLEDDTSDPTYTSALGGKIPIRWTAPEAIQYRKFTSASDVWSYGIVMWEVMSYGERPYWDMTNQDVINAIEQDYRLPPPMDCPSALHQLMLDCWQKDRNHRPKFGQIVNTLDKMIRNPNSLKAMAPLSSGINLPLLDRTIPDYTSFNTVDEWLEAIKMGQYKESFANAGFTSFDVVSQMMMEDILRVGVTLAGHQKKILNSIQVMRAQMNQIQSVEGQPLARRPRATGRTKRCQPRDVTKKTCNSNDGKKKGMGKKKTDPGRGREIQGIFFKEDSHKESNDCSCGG
test-method-notes: phosphorylation enrichment, bacterial display (enrichment ratio); higher = better substrate or ligand; peptides without Tyr show the background
# respond with the number and nothing more

// worked examples, phosphorylation enrichment included
> print(dat)
                     sequence.content           measurement.label  reported.value
1        GVSYIYTIDGS [DCX_Y105_R102S]  phosphorylation enrichment           0.498
2             MQMEEYRGWVE [BTNL2_Y91]  phosphorylation enrichment           0.711
3  QITQVCGFFDE [PPP2CA_Y127_Y127C_YF]  phosphorylation enrichment           0.871

Request: # phosphorylation enrichment lookup, item KIMVIYDGACQ [VWDE_Y1035_T1032M]
Response: 1.11

Request: And then VYPATYHPDHW [EFCAB12_Y544] , what is it?
Response: 0.385

Request: What would you report for GGQSVYHVHLH [HINT1_Y109] ?
Response: 0.487

Request: Queued: MDNQEYKDAFT [BRDT_Y331_K336T_YF]
Response: 0.913

Request: Repeat for the following sequence: QEIATYRRLLE [KRT14_Y415]
Response: 0.53

Request: And then FKEQGYHRLPP [RIN1_Y681_YF] , what is it?
Response: 0.298

Request: And EWRSPYGLTPR [GRIN3B_Y601] ?
Response: 0.473

Request: Same question, LPKEQYLFTKE [AFG3L2_Y614_YF] this time
Response: 0.471

Request: Entry GMRHGYGVRQS [JPH2_Y141] please
Response: 0.373

Request: // repeat for FDKPVYQKTTE [LDLR_Y828_N825K] and report
Response: 0.475

Request: Now the sequence IFRASYFRRGD [LTK_Y676_YF]
Response: 0.438
